Below, each entry is listed alongside its reported KD ratio to GLS3000.
SYSTEM_TESTED: T1, CD3 epsilon homodimer protein (UniProt P07766 23-126)
T1 construct: also called CD3 (CD3 epsilon)
PROCEDURE_DETAILS: SPR, antibody over immobilised CD3e homodimer;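 further: SPR at 25 °C with CD3 epsilon homodimer amine-coupled to a CM4 sensor chip and antibody flowed over as analyte in HBS-EP+ running buffer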
API note: the answer field is a bare number with no unit suffix.

{"BINDER": "CE115HA000/GLS3000 T92L (antibody, IgG1, name in Kabat numbering, V domains shown, one-arm IgG1) VH: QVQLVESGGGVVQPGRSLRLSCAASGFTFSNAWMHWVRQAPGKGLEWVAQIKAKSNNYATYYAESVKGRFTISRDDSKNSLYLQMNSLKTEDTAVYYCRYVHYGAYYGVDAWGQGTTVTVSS VL: DIVMTQSPLSLPVTPGEPASISCRSSQSLVHSNRNTYLHWYQQKPGQAPRLLIYKVSNRFSGVPDRFSGSGSGTDFTLKISRVEAEDVGVYYCGQGLQVPYTFGQGTKLEIK", "KD ratio to GLS3000": 1.61}

stdin: Need KD ratio to GLS3000 of CE115HA000/GLS3000 H34F (antibody, IgG1, name in Kabat numbering, V domains shown, one-arm IgG1) VH: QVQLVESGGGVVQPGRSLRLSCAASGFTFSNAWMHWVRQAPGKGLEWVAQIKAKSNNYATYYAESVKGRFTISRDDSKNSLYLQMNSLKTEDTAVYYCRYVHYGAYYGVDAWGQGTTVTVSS VL: DIVMTQSPLSLPVTPGEPASISCRSSQSLVHSNRNTYLFWYQQKPGQAPRLLIYKVSNRFSGVPDRFSGSGSGTDFTLKISRVEAEDVGVYYCGQGTQVPYTFGQGTKLEIK , thanks.
stdout: 3.5

stdin: Need KD ratio to GLS3000 of CE115HA000/GLS3000 N28H (antibody, IgG1, name in Kabat numbering, V domains shown, one-arm IgG1) VH: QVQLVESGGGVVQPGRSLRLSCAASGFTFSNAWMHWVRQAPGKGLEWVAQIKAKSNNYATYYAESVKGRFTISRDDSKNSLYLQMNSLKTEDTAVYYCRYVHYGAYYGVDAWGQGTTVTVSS VL: DIVMTQSPLSLPVTPGEPASISCRSSQSLVHSHRNTYLHWYQQKPGQAPRLLIYKVSNRFSGVPDRFSGSGSGTDFTLKISRVEAEDVGVYYCGQGTQVPYTFGQGTKLEIK , thanks.
stdout: 3

stdin: Need KD ratio to GLS3000 of CE115HA000/GLS3000 G89N (antibody, IgG1, name in Kabat numbering, V domains shown, one-arm IgG1) VH: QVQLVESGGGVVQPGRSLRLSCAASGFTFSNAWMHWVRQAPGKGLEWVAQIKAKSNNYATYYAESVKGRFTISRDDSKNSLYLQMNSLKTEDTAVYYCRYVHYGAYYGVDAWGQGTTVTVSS VL: DIVMTQSPLSLPVTPGEPASISCRSSQSLVHSNRNTYLHWYQQKPGQAPRLLIYKVSNRFSGVPDRFSGSGSGTDFTLKISRVEAEDVGVYYCNQGTQVPYTFGQGTKLEIK , thanks.
stdout: 1.2

stdin: Need KD ratio to GLS3000 of CE115HA000/GLS3000 H27dI (antibody, IgG1, name in Kabat numbering, V domains shown, one-arm IgG1) VH: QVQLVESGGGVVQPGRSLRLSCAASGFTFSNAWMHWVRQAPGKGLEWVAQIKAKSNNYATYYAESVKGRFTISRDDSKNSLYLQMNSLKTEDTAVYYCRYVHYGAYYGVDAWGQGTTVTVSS VL: DIVMTQSPLSLPVTPGEPASISCRSSQSLVISNRNTYLHWYQQKPGQAPRLLIYKVSNRFSGVPDRFSGSGSGTDFTLKISRVEAEDVGVYYCGQGTQVPYTFGQGTKLEIK , thanks.
stdout: 7.77

stdin: Need KD ratio to GLS3000 of CE115HA000/GLS3000 T92A (antibody, IgG1, name in Kabat numbering, V domains shown, one-arm IgG1) VH: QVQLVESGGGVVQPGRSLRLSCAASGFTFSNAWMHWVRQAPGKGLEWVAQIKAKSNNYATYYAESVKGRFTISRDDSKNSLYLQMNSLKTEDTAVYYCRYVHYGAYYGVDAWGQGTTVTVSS VL: DIVMTQSPLSLPVTPGEPASISCRSSQSLVHSNRNTYLHWYQQKPGQAPRLLIYKVSNRFSGVPDRFSGSGSGTDFTLKISRVEAEDVGVYYCGQGAQVPYTFGQGTKLEIK , thanks.
stdout: 1.35
